# assayed.system: T1, canine IL-31 protein (Canine_IL31) (canine)
# T1 chain: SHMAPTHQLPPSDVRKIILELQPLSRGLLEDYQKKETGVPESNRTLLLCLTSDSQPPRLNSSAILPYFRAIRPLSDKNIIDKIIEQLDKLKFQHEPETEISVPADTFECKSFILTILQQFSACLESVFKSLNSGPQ
# protocol.summary: SPR (Biacore), IL-31 on chip, 1:1 fit
Each entry below carries its reported kon.
measured.attribute: kon (M⁻¹ s⁻¹)

| binder | recorded.value |
| --- | --- |
| mouse anti IL-31 antibody 11E12 (antibody, V domains shown, Mouse monoclonal comparison antibody; also called MU-11E12; mouse 11E12) VH: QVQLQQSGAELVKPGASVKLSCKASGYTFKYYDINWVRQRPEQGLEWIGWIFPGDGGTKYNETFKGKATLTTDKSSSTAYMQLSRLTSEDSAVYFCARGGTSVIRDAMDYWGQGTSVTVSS VL: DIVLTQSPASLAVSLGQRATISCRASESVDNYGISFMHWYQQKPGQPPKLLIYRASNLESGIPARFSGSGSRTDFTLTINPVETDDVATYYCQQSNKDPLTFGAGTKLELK | 629000 |
| Feline 15H05 3.1 (antibody, V domains shown, Feline heavy and kappa constant regions) VH: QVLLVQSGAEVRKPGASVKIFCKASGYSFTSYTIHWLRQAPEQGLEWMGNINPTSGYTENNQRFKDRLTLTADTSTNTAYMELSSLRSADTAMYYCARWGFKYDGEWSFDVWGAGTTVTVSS VL: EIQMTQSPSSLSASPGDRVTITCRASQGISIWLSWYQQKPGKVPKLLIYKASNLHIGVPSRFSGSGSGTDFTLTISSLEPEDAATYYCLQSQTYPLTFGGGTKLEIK | 26500 |
